These entries and their values trace back to the supplement of paper PMC10567573.

B1: HDAC6 (parent)
chain: YVHHQALLDVKNIAHQNKFGEDMP

variants of: B1; assay: protein stability index of a GFP-peptide fusion (GPS, HEK-293T) (PSI 1-6); higher = more stable; conditions: c terminus: a fixed tail appended;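 also: lentivirally expressed fusions sorted by FACS into six bins by GFP to DsRed ratio, PSI derived from sequencing read proportions per bin multiplied by bin number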
assay_metric: protein stability index

The cases that follow already have their protein stability index on record.
mutation_code | val
K11L | 1.27
Q16M | 2.28
P24A | 1.46
L8Y | 2.32
V10W | 2.37

For each entry beneath this line, provide reported protein stability index.
1. M23W
2. Q16I
3. K18D
4. L7T

Data returned:
1: 1.49; 2: 2.16; 3: 1.7; 4: 2.18
